FYI, the data here is from ChEMBL document CHEMBL2010747.

# Tested on: Nucleic Acid
# method: Induction of Escherichia coli pUC18 DNA cleavage assessed as formation of open circular DNA at 200 uM after 48 hrs by agarose gel electrophoresis
# Type: nucleic-acid assay
Activity calls are given as the source filed them. The calls are words filed in the database; no cut-off is given here. Peptide text beside a SMILES is read from it. * marks the point of attachment. Fmoc = O=C(OCC1c2ccccc2-c2ccccc21)*
readoutLabel: Activity

# compound, system, Activity
data = [
    ("COC(=O)CNC(=O)[C@@H](N)CC(C)C (H-Leu-Gly-OMe)", "Nucleic Acid", "inactive"),
    ("COC(=O)[C@H](Cc1c[nH]c2ccccc12)NC(=O)[C@H](CC(C)C)NC(=O)CN1CCCNCCCNCCC1", "Nucleic Acid", "50%"),
    ("COC(=O)[C@H](CO)NC(=O)[C@H](CC(C)C)NC(=O)CN1CCCNCCCNCCC1", "Nucleic Acid", "50%"),
    ("COC(=O)[C@H](Cc1ccccc1)NC(=O)[C@H](CC(C)C)NC(=O)CN1CCCNCCCNCCC1", "Nucleic Acid", "50%"),
]

### Prompt Provide only the value of recorded Activity for COC(=O)[C@H](CO)NC(=O)[C@@H](N)CC(C)C (H-Leu-Ser-OMe)
### Response inactive

### Prompt Please report the measured Activity for COC(=O)[C@H](Cc1c[nH]c2ccccc12)NC(=O)[C@@H](N)CC(C)C
### Response inactive

### Prompt Read the entry COC(=O)[C@H](CCCCNC(=O)OCC1c2ccccc2-c2ccccc21)NC(=O)[C@@H](N)CC(C)C (H-Leu-Lys(Fmoc)-OMe) and write its reported Activity.
### Response inactive

### Prompt Please indicate Activity recorded for COC(=O)CNC(=O)CNC(=O)CN1CCCNCCCNCCC1
### Response 50%

### Prompt // Input: COC(=O)[C@H](Cc1ccccc1)NC(=O)[C@@H](N)CC(C)C (H-Leu-Phe-OMe) . Output its Activity only.
### Response inactive

### Prompt Specify reported Activity for the compound shown: COC(=O)[C@H](Cc1ccc(O)cc1)NC(=O)[C@H](CC(C)C)NC(=O)CN1CCCNCCCNCCC1
### Response 50%

### Prompt Return value of Activity for input COC(=O)[C@H](C)NC(=O)[C@H](CC(C)C)NC(=O)CN1CCCNCCCNCCC1 , no commentary.
### Response 50%

### Prompt Give the value of Activity reported for the following: COC(=O)[C@H](Cc1ccc(O)cc1)NC(=O)[C@@H](N)CC(C)C (H-Leu-Tyr-OMe)
### Response inactive

### Prompt Supply Activity value. Item: COC(=O)CNC(=O)CN
### Response inactive

### Prompt Provide only the value of recorded Activity for COC(=O)[C@H](C)NC(=O)[C@@H](N)CC(C)C (H-Leu-Ala-OMe)
### Response inactive

### Prompt # return recorded Activity for entry COC(=O)CNC(=O)[C@H](CC(C)C)NC(=O)CN1CCCNCCCNCCC1
### Response 50%

### Prompt Report Activity for COC(=O)[C@H](CCCCN)NC(=O)[C@H](CC(C)C)NC(=O)CN1CCCNCCCNCCC1
### Response 50%
